- Read-out: Transforming growth factor beta 1 (TGFb1), TGFB1 (gene 7040)
- Experiment: BSK_BE3C_TGFb1: BioMAP Diversity Plus: BE3C Assay for Transforming growth factor beta 1 (TGFb1) Biomarker Activity (AID 2283036;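 for Outcome: TGF-b1 protein level measured by ELISA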)
- Conditions Used: primary human bronchial epithelial cells; actives raise or lower the signal
Active and inactive are the calls of the source. Rule for the calls: active = hit-call score of the fitted dose curve at least 0.9, where 1 is the maximum; inactive = score below 0.9.
Outcome codes: true (active), false (inactive)

{"Compound": "CC(C)(C)c1cccc(C(C)(C)C)c1O", "Assigned Category": "false"}
{"Compound": "C[C@@H]1C[C@H]2[C@@H]3CCC4=CC(=O)C=C[C@]4(C)[C@@]3(F)[C@@H](O)C[C@]2(C)[C@@]1(O)C(=O)COP(=O)(O)O", "Assigned Category": "false"}
{"Compound": "CC(=O)NC1(c2cccc(F)c2)CCN(CC[C@@]2(c3ccc(Cl)c(Cl)c3)CN(c3ccccc3)C(=O)CO2)CC1", "Assigned Category": "false"}
{"Compound": "N#C[C@@H]1CC(F)(F)CN1C(=O)CNC1CC2CCC(C1)N2c1ncccn1 (stereo not given in full)", "Assigned Category": "false"}
{"Compound": "c1ccc2c(c1)Cc1ccccc1-2", "Assigned Category": "false"}
{"Compound": "CC#C[C@]1(O)CC[C@H]2[C@@H]3CCC4=CC(=O)CCC4=C3[C@@H](c3ccc(N(C)C)cc3)C[C@@]21C", "Assigned Category": "false"}
{"Compound": "ClC1=C(Cl)C(Cl)(Cl)C(Cl)=C1Cl", "Assigned Category": "true"}
{"Compound": "CC(C)CCCCCCOC(=O)CCCCC(=O)OCCCCCCC(C)C", "Assigned Category": "false"}
{"Compound": "CC[C@H](C)[C@@H](C(=O)O)n1sc2ccccc2c1=O", "Assigned Category": "false"}
{"Compound": "Cc1cc(CCN2CCN(c3nsc4ccccc34)CC2)cc2c1NC(=O)CC2(C)C", "Assigned Category": "true"}
{"Compound": "CCC(C)(C)C1CCC(O)CC1 (stereo not given)", "Assigned Category": "false"}
{"Compound": "CCCCCCCCCCCCc1ccccc1S(=O)(=O)O", "Assigned Category": "true"}
{"Compound": "CCOC(=O)CC(O)(CC(=O)OCC)C(=O)OCC", "Assigned Category": "false"}
{"Compound": "CCCCC(CC)COC(=O)CCCCC(=O)OCC(CC)CCCC (stereo not given)", "Assigned Category": "false"}
{"Compound": "COCC(C)OCC(C)O (stereo not given)", "Assigned Category": "false"}
{"Compound": "CN(C)C=O", "Assigned Category": "false"}
{"Compound": "Oc1cccc(O)c1", "Assigned Category": "false"}
{"Compound": "O=C(O)Cc1cc(I)c(Oc2cc(I)c(O)c(I)c2)c(I)c1", "Assigned Category": "true"}
{"Compound": "CCCCC(CC)COC(=O)CCCCC(=O)OCc1ccccc1 (stereo not given)", "Assigned Category": "false"}
{"Compound": "CCCCCCCCOC(=O)CCCCCCCCC(=O)OCCCCCCCC", "Assigned Category": "false"}
{"Compound": "NC(=O)N(O)[C@@H]1C=C[C@H](Oc2cccc(Oc3ccc(F)cc3)c2)C1", "Assigned Category": "false"}
{"Compound": "O=C(O)c1ccccc1C(c1ccc(O)cc1)c1ccc(O)cc1", "Assigned Category": "false"}
{"Compound": "CC(=O)CC(C)(C)O", "Assigned Category": "false"}
{"Compound": "C#C[C@]1(O)CC[C@H]2[C@@H]3CCC4=CC(=O)CC[C@@H]4[C@H]3CC[C@@]21C", "Assigned Category": "false"}
{"Compound": "CCCOc1sc(C(=O)N2CCC(c3cc(CN)ccc3F)CC2)c(C)c1Br", "Assigned Category": "true"}

###

- Experiment: APR_HepG2_P-H2AX_24hr: Apredica 24-hour HepG2 Assay for H2AX Phosphorylation (AID 2282920)
- Conditions Used: high-content imaging, actives raise or lower the signal
Activity calls are given as the source filed them. How the source made its calls: active means hit-call score of the fitted dose curve at least 0.9, where 1 is the maximum; inactive means score below 0.9.
Labels: active, inactive

{"Compound": "CC1=C(/C=C/C(C)=C/C=C/C(C)=C/C(=O)O)C(C)(C)CCC1", "Assigned Category": "active"}
{"Compound": "C#C[C@]1(O)CC[C@H]2[C@@H]3CCC4=CC(=O)CC[C@@H]4[C@H]3CC[C@@]21C", "Assigned Category": "inactive"}
{"Compound": "N#C[C@@H]1CC(F)(F)CN1C(=O)CNC1CC2CCC(C1)N2c1ncccn1 (stereo partly drawn)", "Assigned Category": "inactive"}
{"Compound": "C=C(C)C(=O)OCCC(F)(F)C(F)(F)C(F)(F)C(F)(F)C(F)(F)C(F)(F)F", "Assigned Category": "inactive"}
{"Compound": "COc1ccc([N+](=O)[O-])cc1N", "Assigned Category": "inactive"}
{"Compound": "OCCC(F)(F)C(F)(F)C(F)(F)C(F)(F)C(F)(F)C(F)(F)C(F)(F)C(F)(F)F", "Assigned Category": "active"}
{"Compound": "Cc1cc(CCN2CCN(c3nsc4ccccc34)CC2)cc2c1NC(=O)CC2(C)C", "Assigned Category": "active"}
{"Compound": "CN1CCC[C@H]1c1cccnc1", "Assigned Category": "inactive"}
{"Compound": "c1ccc2c(c1)ccc1ccccc12", "Assigned Category": "inactive"}
{"Compound": "CC(=O)NC1(c2cccc(F)c2)CCN(CC[C@@]2(c3ccc(Cl)c(Cl)c3)CN(c3ccccc3)C(=O)CO2)CC1", "Assigned Category": "active"}
{"Compound": "CCCCCCCCCCCCc1ccccc1S(=O)(=O)O", "Assigned Category": "active"}
{"Compound": "O=C(O)c1ccccc1C(c1ccc(O)cc1)c1ccc(O)cc1", "Assigned Category": "inactive"}
{"Compound": "CCC(C)(C)C1CCC(O)CC1 (stereo not drawn)", "Assigned Category": "active"}

###

- Read-out: ABC Transporter (ABCB11), ABCB11 (gene 8647)
- Experiment: LTEA_HepaRG_ABCB11: Life Technologies and Expression Analysis (LTEA) Assay for ABC Transporter (ABCB11) using HepaRG (AID 2283463)
- Conditions Used: mRNA level, 48 h; actives raise or lower the signal
Active and inactive are the calls of the source. The calls were made as follows: active = hit-call score of the fitted dose curve at least 0.9, where 1 is the maximum; inactive = score below 0.9.
Possible outcomes: Y = active, N = inactive

{"Molecule": "CN1CCC[C@H]1c1cccnc1", "Assigned Category": "N"}
{"Molecule": "O=C(OCCOCCOC(=O)c1ccccc1)c1ccccc1", "Assigned Category": "N"}
{"Molecule": "C#C[C@]1(O)CC[C@H]2[C@@H]3CCC4=CC(=O)CC[C@@H]4[C@H]3CC[C@@]21C", "Assigned Category": "Y"}
{"Molecule": "CC(C)(C)CC(C)(C)c1ccc(O)c(-n2nc3ccccc3n2)c1", "Assigned Category": "N"}
{"Molecule": "c1ccc2cc3c(ccc4ccccc43)cc2c1", "Assigned Category": "Y"}
{"Molecule": "CCCCC(CC)COC(=O)CCCCC(=O)OCC(CC)CCCC (stereo not drawn)", "Assigned Category": "N"}
{"Molecule": "CC#C[C@]1(O)CC[C@H]2[C@@H]3CCC4=CC(=O)CCC4=C3[C@@H](c3ccc(N(C)C)cc3)C[C@@]21C", "Assigned Category": "Y"}
{"Molecule": "CCN(CC)CCNc1ccc(CNC=O)c2sc3ccc(OC)cc3c(=O)c12", "Assigned Category": "Y"}
{"Molecule": "Oc1cc2ccccc2c2ccccc12", "Assigned Category": "Y"}
{"Molecule": "CCc1ccc(CCOc2ccc(CC3SC(=O)NC3=O)cc2)nc1 (stereo not drawn)", "Assigned Category": "Y"}
{"Molecule": "CC(C)(C)c1cccc(C(C)(C)C)c1O", "Assigned Category": "N"}
{"Molecule": "CCC(C)(C)C1CCC(O)CC1 (stereo not drawn)", "Assigned Category": "N"}
{"Molecule": "Nc1cccc2c(N)cccc12", "Assigned Category": "Y"}
{"Molecule": "O=c1c(-c2ccc(O)cc2)coc2cc(O)ccc12", "Assigned Category": "N"}
{"Molecule": "COCC(C)O (stereo not drawn)", "Assigned Category": "N"}
{"Molecule": "CCCCCCCCCCCCCCCS(=O)(=O)Oc1ccccc1", "Assigned Category": "N"}
{"Molecule": "CCCCCCCCC(=O)O", "Assigned Category": "N"}
{"Molecule": "CCCCCCCCCCCCc1ccccc1S(=O)(=O)O", "Assigned Category": "Y"}

###

- Read-out: Matrix Metallopeptidase 1 (MMP1), MMP1 (gene 4312)
- Experiment: BSK_BE3C_MMP1: BioMAP Diversity Plus: BE3C Assay for Matrix Metallopeptidase 1 (MMP1) Biomarker Activity (AID 2283024)
- Conditions Used: primary human bronchial epithelial cells; actives raise or lower the signal
The source made the active and inactive calls. The calls were made as follows: active = hit-call score of the fitted dose curve at least 0.9, where 1 is the maximum; inactive = score below 0.9.
Outcome codes: active, inactive

{"Compound": "CCc1ccc(CCOc2ccc(CC3SC(=O)NC3=O)cc2)nc1 (stereo unspecified)", "Assigned Category": "inactive"}
{"Compound": "CCOC(=O)CC(O)(CC(=O)OCC)C(=O)OCC", "Assigned Category": "inactive"}
{"Compound": "CCCCCCCCOC(=O)CCCCCCCCC(=O)OCCCCCCCC", "Assigned Category": "inactive"}
{"Compound": "Oc1cccc(O)c1", "Assigned Category": "inactive"}
{"Compound": "NCC(F)(F)C(F)(F)C(F)(F)C(F)(F)C(F)(F)C(F)(F)C(F)(F)F", "Assigned Category": "inactive"}
{"Compound": "O=c1c(-c2ccc(O)cc2)coc2cc(O)ccc12", "Assigned Category": "inactive"}
{"Compound": "CC#C[C@]1(O)CC[C@H]2[C@@H]3CCC4=CC(=O)CCC4=C3[C@@H](c3ccc(N(C)C)cc3)C[C@@]21C", "Assigned Category": "active"}
{"Compound": "Nc1cccc2c(N)cccc12", "Assigned Category": "inactive"}
{"Compound": "CCC(C)(C)C1CCC(O)CC1 (stereo unspecified)", "Assigned Category": "inactive"}
{"Compound": "CC[C@H](C)[C@@H](C(=O)O)n1sc2ccccc2c1=O", "Assigned Category": "inactive"}
{"Compound": "CCCOC(=O)c1ccc(O)cc1", "Assigned Category": "inactive"}
{"Compound": "CCCCCCCCCCCCN1CCCC1=O", "Assigned Category": "active"}
{"Compound": "NC(=O)N1C(=O)C(C(=O)c2cc(Cl)cs2)c2cc(F)c(Cl)cc21 (stereo unspecified)", "Assigned Category": "active"}
{"Compound": "O=C(O)c1ccccc1C(c1ccc(O)cc1)c1ccc(O)cc1", "Assigned Category": "inactive"}
{"Compound": "CCN(CC)CCNc1ccc(CNC=O)c2sc3ccc(OC)cc3c(=O)c12", "Assigned Category": "active"}
{"Compound": "O=[N+]([O-])c1ccc(O)cc1", "Assigned Category": "inactive"}
